# ASSAY_METHOD_TEXT: Intrinsic clearance in human liver microsomes in presence of NADPH
# Assay type: ADME, Microsome
EXPERIMENTAL_READOUT: microsomal CLint (µL/min/mg)
Quick note: give the figure in µL/min/mg, leave out the unit.

Consider the following illustrative entries.
MOLECULE	RESULT_VALUE
COc1ccc(C(F)(F)F)cc1Cn1c(C(=O)NCC2(CO)CC2)cc2cc(C#N)ccc21	155
CCCOc1cccc(Cn2c(C(=O)NCC(C)(C)CO)cc3cc(C#N)ccc32)c1	156
N#Cc1ccc2c(c1)cc(C(=O)NCCC(O)C(F)(F)F)n2Cc1cccc(OC(F)(F)F)c1 (stereo not given)	59

Let us examine a further case.
Please give the measured microsomal CLint for this molecule: CC(C)(CO)CNC(=O)c1cc2cc(C#N)ccc2n1Cc1cccc(OC(F)(F)F)c1
62

Source: ChEMBL document CHEMBL1759935
